B1: TRAF3IP2 (parent)
chain: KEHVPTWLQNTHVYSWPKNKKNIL

Variants of: B1
PROCEDURE_DETAILS: protein stability index of a GFP-peptide fusion (GPS, HEK-293T) (PSI 1-6); higher = more stable;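 also: lentivirally expressed fusions sorted by FACS into six bins by GFP to DsRed ratio, PSI derived from sequencing read proportions per bin multiplied by bin number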
SETUP_CONDITIONS: c terminus: a fixed tail appended
Reported protein stability index values for the following variants.
Lab note: write the figure by itself, no unit.

Worked examples, 3 variants total:
// protein stability index lookup, variant = T6D , result: 2.71

// protein stability index lookup, variant = N19S , result: 2.61

// protein stability index lookup, variant = W16G , result: 3.55

---
// protein stability index lookup, variant = T6H , result: 2.29

// protein stability index lookup, variant = K21D , result: 2.73

Origin of the recorded values: the supplement of paper PMC10567573
